# targetOrTestSystem: Human HIF-PHD2 (Homo sapiens, UniProt Q9GZT9)
# Construct: FLAG-tagged full length PHD2 expressed in and purified from baculovirus-infected Sf9 cells; FLAG; made in house; host or cells: baculovirus-infected Sf9 cells
# Sequence (Q9GZT9 whole entry): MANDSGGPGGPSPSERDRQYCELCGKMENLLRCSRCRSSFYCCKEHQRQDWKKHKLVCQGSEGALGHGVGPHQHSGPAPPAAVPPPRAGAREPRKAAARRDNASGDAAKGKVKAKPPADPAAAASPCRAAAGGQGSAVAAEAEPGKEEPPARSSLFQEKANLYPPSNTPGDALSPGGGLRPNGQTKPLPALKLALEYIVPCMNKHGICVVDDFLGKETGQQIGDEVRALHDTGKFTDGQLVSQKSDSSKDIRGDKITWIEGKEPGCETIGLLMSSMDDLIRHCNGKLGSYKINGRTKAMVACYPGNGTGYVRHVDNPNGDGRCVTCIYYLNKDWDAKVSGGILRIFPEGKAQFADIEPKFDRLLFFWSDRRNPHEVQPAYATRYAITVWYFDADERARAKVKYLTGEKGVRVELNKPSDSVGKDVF
# protocolSummary: Inhibition of the hydroxylation of a HIF peptide by PHD2 (time resolved fluorescence, 384-well)
# Format: biochemical
# reportedConditions: FLAG-tagged full length PHD2; 0.2 μM 2-oxoglutarate, 0.5 μM HIF-1α peptide; 45 minutes at room temperature; read-out: Human HIF-PHD2 IC50
# Description: To each well of a 384-well plate, 1 μL of test compounds in DMSO (final concentration ranging from 0.3 nM to 10 uM) were added into 20 μl of assay buffer (50 mM Tris pH 7.4/0.01% Tween-20/0.1 mg/ml bovine serum albumin/10 μM ferrous sulfate/1 mM sodium ascorbate/20 μg/ml catalase) containing 0.15 μg/ml FLAG-tagged full length PHD2 expressed in and purified from baculovirus-infected Sf9 cells. […]
pIC50: −log10 of the molar value.
measurementLabel: pIC50

[P] N#Cc1ccc(C2Cn3c(=O)c(C(=O)NCC(=O)O)c(O)c4ccc(C(F)(F)F)c(c43)O2)cc1 (single isomer, unassigned)
[Q] O=C(O)CNC(=O)c1c(O)c2c(F)ccc3c2n(c1=O)CC(c1ccc(C(F)(F)F)cc1)O3 (single isomer, unassigned)
[R] N#Cc1ccc(C2Cn3c(=O)c(C(=O)NCC(=O)O)c(O)c4ccc(C#N)c(c43)O2)cc1 (stereo not drawn)
[S] CN1c2cccc3c(O)c(C(=O)NCC(=O)O)c(=O)n(c23)CC1c1ccc(C(F)(F)F)cc1 (stereo not drawn)
[T] Cc1ccc2c3c1c(O)c(C(=O)NCC(=O)O)c(=O)n3CC(c1ccc(C(F)(F)F)cc1)O2 (stereo not drawn)
Q) Order by pIC50, ascending. Give your ranking as a list of the labels in the requested order.
A) S, T, Q, P, R
